Each recorded value in this set is attributed to ChEMBL document CHEMBL1201862.

Listed below: GI50 values for each entry.
tested on: UACC-257; test: NCI tumour cell line growth inhibition, 48 h
Active and inactive are the calls of the source. Rule as the data show it: active = GI50 up to about 1.1 µM and inactive = higher.
QUANTITY NAME: GI50

COMPOUND: NC(=S)N/N=C/C(O[C@@H](/C=N/NC(N)=S)CO)n1cnc2c(N)ncnc21 (stereo partly specified)
ASSAY RESULT: > 100 µM (inactive)
--
COMPOUND: COc1ccc(NC(=O)C(=O)NO)c(OC)c1
ASSAY RESULT: 22.2 µM (inactive)
--
COMPOUND: COc1cc(C2C(C#N)=C(N)OC3=C2CCS(=O)(=O)c2ccc(C)cc23)cc(OC)c1OC (stereo unspecified)
ASSAY RESULT: > 100 µM (inactive)
--
COMPOUND: Nc1nc(N)c2ncn(-c3ccccc3)c2n1
ASSAY RESULT: > 100 µM (inactive)
--
COMPOUND: CC(C)N1CCN(c2ccncc2S(=O)(=O)N2CCCCC2)CC1
ASSAY RESULT: > 100 µM (inactive)
--
COMPOUND: Cc1c2c(n(CCN(C)C)c1C)NN=C(C#N)S2(=O)=O
ASSAY RESULT: > 100 µM (inactive)
